All figures here come from patent US20250340659A1.

- Target or test system: T1, recombinant canine OX40L ECD-TNCc-HIS protein (canine)
- T1 construct: also called Trimeric OX40L probe (HIS tag); trimeric canine OX40L
- T1 chain: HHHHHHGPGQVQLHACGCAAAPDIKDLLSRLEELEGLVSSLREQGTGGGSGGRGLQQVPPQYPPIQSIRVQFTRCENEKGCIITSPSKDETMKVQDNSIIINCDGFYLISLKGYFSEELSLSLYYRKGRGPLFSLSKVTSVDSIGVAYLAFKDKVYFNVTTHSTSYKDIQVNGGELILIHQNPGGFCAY
- Procedure details: SPR Koff (kd2)
Assay readout: koff (s⁻¹)
Numbers only, in s⁻¹.

>>> reported_measurement("PMX038 (antibody, V domains shown, also called PMX38) VH: EVQLVESGGDLVKPGGSLRLSCVASGFTFSSYHMSWVRQAPGKGLQWVAYITSGGRTTSYADAVKGRFTISRDNAKNTLYLQMKSLRAEDTAVYYCARDLVLVLGGAEYWGQGTLVTVSS VL: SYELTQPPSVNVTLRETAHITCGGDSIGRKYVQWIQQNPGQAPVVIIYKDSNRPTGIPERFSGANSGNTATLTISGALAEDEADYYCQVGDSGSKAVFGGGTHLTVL")
0.000796

Recorded koff for PMX051 (antibody, V domains shown, also called PMX51) VH: EVQLVESGGDLVKPGGSLRLSCVASGFSFNTYHMNWVRQAPGKGLHWVAFINSDGGGTSYADTVKGRFTISRDYAKNTLYLQMNSLRAEDTAVYYCVSGSIWTHFDYWGQGTLVTVSS VL: SYVLTQLPSVSMTLRQTAHITCGGDIIGSKSVYWYQQKLGQAPVLIIYRDTNRPTGIPERFSGASSGNTATLTISGALAEDEADYYCQVWDSSTQAVFGGGTHLTVL , please? 4.81
